Collected Binding Signal values appear next to each entry.
- assay target: T1, human TREM2 (human, UniProt Q9NZC2 19-174, limits assumed)
- T1 construct: also called triggering receptor expressed on myeloid cells 2
- T1 sequence: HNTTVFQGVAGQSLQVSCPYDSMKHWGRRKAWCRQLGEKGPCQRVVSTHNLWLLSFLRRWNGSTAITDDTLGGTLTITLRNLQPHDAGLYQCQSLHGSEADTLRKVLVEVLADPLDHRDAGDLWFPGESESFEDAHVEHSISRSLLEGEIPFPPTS
- assay overview: 2nd screen, 2 nM

Recorded results for 4 binders are shown here.
V72 (antibody, V domains shown, also called 6E7 variant V72) VH: EVQLVQSGAEVKKPGESLKISCKGSGYSFTSYWIGWVRQMPGKGLEWMGIIYPGDSDTRYSPSFQGQVTISADKSISTAYLQWSSLKASDTAMYFCARGRTFYYDSSDYFDYWGQGTLVTVSS VL: DIQMTQSPSSVSASVGDRVTITCRASQGISSWLAWYQQKPGKAPKLLIYAASSLVNGVPSRFSGSGSGTDFTLTISSLQPEDFATYFCQQADSYPRTFGQGTKLEIK ... 2.5 fold over 6E7 parental antibody
V76 (antibody, V domains shown, also called 6E7 variant V76; LV-109/HV-110) VH: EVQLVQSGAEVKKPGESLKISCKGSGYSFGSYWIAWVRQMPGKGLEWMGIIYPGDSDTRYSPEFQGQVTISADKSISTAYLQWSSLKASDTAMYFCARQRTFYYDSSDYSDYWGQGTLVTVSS VL: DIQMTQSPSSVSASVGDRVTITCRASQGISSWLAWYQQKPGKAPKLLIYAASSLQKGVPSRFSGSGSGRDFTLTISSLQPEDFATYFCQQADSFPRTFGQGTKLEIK ... 4.34 fold over 6E7 parental antibody
V52 (antibody, V domains shown, also called 6E7 variant V52; LV-107/HV-107) VH: EVQLVQSGAEVKKPGESLKISCKGSGYSFESYWIAWVRQMPGKGLEWMGIIYPGDSDTRYSPSFQGQVTISADKSISTAYLQWSSLKASDTAMYFCARGRTFYYDSSDYFDYWGQGTLVTVSS VL: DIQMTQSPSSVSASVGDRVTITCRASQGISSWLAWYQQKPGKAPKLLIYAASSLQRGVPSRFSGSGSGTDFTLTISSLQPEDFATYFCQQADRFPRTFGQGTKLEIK ... 1.78 fold over 6E7 parental antibody
V85 (antibody, V domains shown, also called 6E7 variant V85) VH: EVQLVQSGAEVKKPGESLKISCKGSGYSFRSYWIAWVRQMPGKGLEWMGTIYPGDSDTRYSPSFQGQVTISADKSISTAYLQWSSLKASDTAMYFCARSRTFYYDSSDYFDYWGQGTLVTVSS VL: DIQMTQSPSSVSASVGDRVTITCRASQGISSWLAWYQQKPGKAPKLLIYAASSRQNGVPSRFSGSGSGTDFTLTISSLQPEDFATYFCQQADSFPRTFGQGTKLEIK ... 5.41 fold over 6E7 parental antibody

For the binder shown here, V26 (antibody, V domains shown, also called 6E7 variant V26) VH: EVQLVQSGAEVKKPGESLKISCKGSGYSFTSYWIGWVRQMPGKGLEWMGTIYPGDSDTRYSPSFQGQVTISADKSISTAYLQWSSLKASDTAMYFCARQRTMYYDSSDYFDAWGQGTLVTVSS VL: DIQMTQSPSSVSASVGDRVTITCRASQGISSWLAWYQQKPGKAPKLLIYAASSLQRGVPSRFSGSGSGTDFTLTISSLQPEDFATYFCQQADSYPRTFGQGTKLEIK , give the reported Binding Signal.
2.83 fold over 6E7 parental antibody
